Assay: qHTS assay for small molecules that induce genotoxicity in human embryonic kidney cells expressing luciferase-tagged ATAD5 (AID 651632); further: nearly all actives have a fitted effect of over 15% in size
Conditions: HEK293T ATAD5-luciferase induction, 16 h; series mostly up to 83.3 µM
Results filed as inconclusive are left out. Calls of active or inactive are those of the source. The call rests on the fitted dose curve; in most records, active means well fitted activation curve with a large enough effect in the repeat runs; inconclusive means weak or mixed curves; inactive means no such curve, though single readings can be large or run the other way.
Outcome codes: YES (active), NO (inactive)

# compound, group label
measured = [
    ("Cc1nnc2n1-c1sc(CCc3ccc(CC(C)C)cc3)cc1C(c1ccccc1Cl)=NC2C (stereo unspecified)", "NO"),
    ("CC[N+](C)(CC)CCOC(=O)C(O)(c1ccccc1)c1ccccc1", "NO"),
    ("O=P1(N(CCCl)CCCl)NC(OO)CCO1 (stereo unspecified)", "NO"),
    ("CCC1(C)CC(=O)NC(=O)C1", "NO"),
    ("CCN1C[C@]2(COC)[C@H](O)C[C@H](OC)[C@@]34[C@@H]5C[C@@]6(O)[C@H](OC(=O)c7ccccc7)[C@@H]5[C@@](OC(C)=O)([C@@H]([C@H](OC)[C@H]23)[C@@H]14)[C@@H](O)[C@@H]6OC", "NO"),
    ("COc1ccc(OC)c([C@@H](O)[C@H](C)N)c1", "NO"),
    ("CC(C)NC(C)Cc1ccc(I)cc1 (stereo unspecified)", "NO"),
    ("CC(=O)Oc1ccc2c3c1O[C@H]1[C@@H](OC(C)=O)C=C[C@H]4[C@@H](C2)N(C)CC[C@@]341", "NO"),
    ("COc1cc([C@@H]2c3cc4c(cc3[C@@H](O)[C@H]3COC(=O)[C@H]23)OCO4)cc(OC)c1O", "YES"),
    ("C[C@]12CC[C@H]3[C@@H](CCC4=CC(=O)CC[C@@]43C)[C@@H]1CC[C@H]2O", "NO"),
    ("CC(=O)[C@@]1(O)CC[C@H]2[C@@H]3CCC4=CC(=O)CC[C@]4(C)C3(F)[C@@H](O)C[C@@]21C (stereo partly specified)", "NO"),
    ("COc1ccc2c3c1O[C@H]1C(=O)CC[C@H]4[C@@H](C2)N(C)CC[C@]314", "NO"),
    ("CC(=O)[C@H]1CC[C@H]2[C@@H]3CC[C@@H]4C[C@H](O)CC[C@]4(C)[C@H]3CC[C@]12C", "NO"),
    ("Cc1nnc2n1-c1sc(Br)cc1C(c1ccccc1Cl)=NC2", "YES"),
    ("[S]=[Sb](=[S])[S][Sb](=[S])=[S]", "NO"),
    ("C[C@]12CC[C@H](O)C[C@H]1CC[C@@H]1[C@@H]2CC[C@]2(C)[C@@H](c3ccc(=O)oc3)C[C@H]3O[C@]132", "NO"),
    ("COC(COC(N)=O)C1=C(N2CC2)C(=O)C(C)=C(N2CC2)C1=O (stereo unspecified)", "NO"),
    ("CCON=O", "NO"),
    ("C=C[C@H]1CN2CC[C@H]1C[C@@H]2[C@@H](O)c1ccnc2ccccc12", "NO"),
    ("Cc1ccccc1-n1c(C)nc2ccccc2c1=O", "NO"),
    ("CNC(C)CC1CCCCC1 (stereo unspecified)", "NO"),
]

###

Molecular target: Aryl hydrocarbon receptor (Homo sapiens)
Assay: qHTS assay to identify small molecule that activate the aryl hydrocarbon receptor (AhR) signaling pathway (AID 743085); further: nearly all actives have a fitted effect of over 15% in size; further: potency means the concentration at half of the fitted maximal effect;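 on activation: HG2L7.5c1 human HepG2 liver cells with stably integrated DRE-driven firefly reporter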
Details: HepG2 AhR-luc (HG2L7.5c1), luciferase, 24 h; series mostly up to 70.3 µM
Inconclusive results are not listed. The source made the active and inactive calls. The call rests on the fitted dose curve; in most records, active means well fitted activation curve with a large enough effect in the repeat runs; inconclusive means weak or mixed curves; inactive means no such curve, though single readings can be large or run the other way.
parameter: Potency

# molecule, reported result
data = [
    ("CC(C)NC(C)Cc1ccc(I)cc1 (stereo not given)", "inactive"),
    ("Nc1ccc(N)c2ccccc12", "0.968 µM (active)"),
    ("Cc1ccccc1-n1c(CF)nc2ccc(N)cc2c1=O", "29.8 µM (active)"),
    ("CCN(CC)/[N+]([O-])=N/O", "inactive"),
    ("C[C@H]1CC[C@]2(NC1)O[C@H]1C[C@H]3[C@@H]4CC[C@H]5C[C@@H](O[C@@H]6O[C@H](CO)[C@H](O[C@@H]7O[C@H](CO)[C@@H](O)[C@H](O[C@@H]8OC[C@@H](O)[C@H](O)[C@H]8O)[C@H]7O[C@@H]7O[C@H](CO)[C@@H](O)[C@H](O)[C@H]7O)[C@H](O)[C@H]6O)CC[C@]5(C)[C@H]4CC[C@]3(C)[C@H]1[C@@H]2C", "inactive"),
    ("CC(=O)OC(C)=O", "inactive"),
    ("NCC(O)c1cccc(O)c1 (stereo not given)", "inactive"),
    ("CC(C)C[C@H](CN)CC(=O)O", "inactive"),
    ("C[C@@H](Cc1ccccc1)NCCC(c1ccccc1)c1ccccc1", "inactive"),
    ("Cc1cccc(C(C)c2cnc[nH]2)c1C (stereo not given)", "11.9 µM (active)"),
]
